- SYSTEM_TESTED: Fibroblast growth factor receptor 3 (Homo sapiens, UniProt P22607, V555M)
- Sequence (P22607 23-806 V555M limits assumed): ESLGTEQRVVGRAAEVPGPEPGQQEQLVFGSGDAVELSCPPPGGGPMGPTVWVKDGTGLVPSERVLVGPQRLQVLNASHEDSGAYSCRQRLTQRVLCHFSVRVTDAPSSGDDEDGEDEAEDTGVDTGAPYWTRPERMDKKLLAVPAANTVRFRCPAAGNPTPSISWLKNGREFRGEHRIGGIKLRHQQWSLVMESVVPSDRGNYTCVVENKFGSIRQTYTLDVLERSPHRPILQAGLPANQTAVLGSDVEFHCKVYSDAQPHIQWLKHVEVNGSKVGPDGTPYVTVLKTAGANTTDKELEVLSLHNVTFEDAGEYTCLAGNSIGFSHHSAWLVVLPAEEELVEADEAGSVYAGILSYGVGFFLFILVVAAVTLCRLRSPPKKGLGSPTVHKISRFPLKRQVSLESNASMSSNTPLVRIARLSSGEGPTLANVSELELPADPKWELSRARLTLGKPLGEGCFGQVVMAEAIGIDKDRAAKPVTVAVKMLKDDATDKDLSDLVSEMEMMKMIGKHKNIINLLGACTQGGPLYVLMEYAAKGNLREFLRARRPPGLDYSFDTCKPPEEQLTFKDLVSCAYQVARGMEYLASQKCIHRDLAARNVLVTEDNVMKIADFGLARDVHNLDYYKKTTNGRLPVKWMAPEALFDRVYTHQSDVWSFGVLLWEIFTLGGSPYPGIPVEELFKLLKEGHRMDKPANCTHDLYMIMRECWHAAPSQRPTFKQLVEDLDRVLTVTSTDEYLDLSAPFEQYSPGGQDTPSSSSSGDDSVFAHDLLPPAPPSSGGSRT
- ASSAY: Inhibition of FGFR3 V555M mutant (unknown origin)
pIC50: −log10 of the molar value.

>  <MOLECULE>
C=CC(=O)N1CCCC(n2nc3c(=O)[nH]nc(N)c3c2-c2oc3ccc(C)cc3c2C)C1 (stereo unspecified)

>  <SYSTEM_TESTED>
Fibroblast growth factor receptor 3 (Homo sapiens, UniProt P22607, V555M)

>  <pIC50>
5.70

$$$$

====

- ASSAY: Cmax in CD-1 mouse at 3 mg/kg, po measured after 24 hrs by LC-MS/MS analysis
- Format: ADME, organism-based
- Set-up: time 24 hrs, dose 3 mg/kg, route po
- DETAILS: in vivo

>  <MOLECULE>
C=CC(=O)N1CCCC(n2nc3c(=O)[nH]nc(N)c3c2-c2oc3ccc(C)cc3c2C)C1 (stereo unspecified)

>  <Cmax>
174 ng/mL

$$$$
